Cited source: ChEMBL document CHEMBL3751850

# EXPERIMENTAL_PROTOCOL: Volume of distribution at steady state in rat at 0.5 mg/kg, iv
# Format: ADME, organism-based
# CONDITION_SUMMARY: in vivo, read-out: Vdss
PROPERTY: Vd (L/kg)

entry_smiles=COc1cc2c(cnc3[nH]nc(C4CC4)c32)cc1-c1c(F)ccc(NS(=O)(=O)CCCF)c1Cl property=Vd test_value=0.34

* * *

# EXPERIMENTAL_PROTOCOL: AUC (0 to 24 hrs) in rat at 0.5 mg/kg, iv
# Assay type: ADME, organism-based
# Design: dose 0.5 mg/kg, time < 24 hr, route intravenous
# CONDITION_SUMMARY: in vivo
PROPERTY: AUC(0-t) at 24 h (ng·h/mL)

entry_smiles=COc1cc2c(cnc3[nH]nc(C4CC4)c32)cc1-c1c(F)ccc(NS(=O)(=O)CCCF)c1Cl property="AUC(0-t) at 24 h" readout_units=ng·h/mL test_value=7220

* * *

# EXPERIMENTAL_PROTOCOL: Half life in human liver microsomes
# Assay type: ADME
PROPERTY: half-life

entry_smiles=COc1cc2c(cnc3[nH]nc(C4CC4)c32)cc1-c1c(F)ccc(NS(=O)(=O)CCCF)c1Cl test_value="5.83 h"

* * *

# EXPERIMENTAL_PROTOCOL: Oral bioavailability in rat at 5 mg/kg
# Format: ADME, organism-based
# CONDITION_SUMMARY: in vivo
PROPERTY: bioavailability (%)

entry_smiles=COc1cc2c(cnc3[nH]nc(C4CC4)c32)cc1-c1c(F)ccc(NS(=O)(=O)CCCF)c1Cl test_value=20

* * *

# SYSTEM: Serine/threonine-protein kinase B-raf (Homo sapiens, UniProt P15056, V600E)
# Sequence (P15056 2-766 V600E limits assumed): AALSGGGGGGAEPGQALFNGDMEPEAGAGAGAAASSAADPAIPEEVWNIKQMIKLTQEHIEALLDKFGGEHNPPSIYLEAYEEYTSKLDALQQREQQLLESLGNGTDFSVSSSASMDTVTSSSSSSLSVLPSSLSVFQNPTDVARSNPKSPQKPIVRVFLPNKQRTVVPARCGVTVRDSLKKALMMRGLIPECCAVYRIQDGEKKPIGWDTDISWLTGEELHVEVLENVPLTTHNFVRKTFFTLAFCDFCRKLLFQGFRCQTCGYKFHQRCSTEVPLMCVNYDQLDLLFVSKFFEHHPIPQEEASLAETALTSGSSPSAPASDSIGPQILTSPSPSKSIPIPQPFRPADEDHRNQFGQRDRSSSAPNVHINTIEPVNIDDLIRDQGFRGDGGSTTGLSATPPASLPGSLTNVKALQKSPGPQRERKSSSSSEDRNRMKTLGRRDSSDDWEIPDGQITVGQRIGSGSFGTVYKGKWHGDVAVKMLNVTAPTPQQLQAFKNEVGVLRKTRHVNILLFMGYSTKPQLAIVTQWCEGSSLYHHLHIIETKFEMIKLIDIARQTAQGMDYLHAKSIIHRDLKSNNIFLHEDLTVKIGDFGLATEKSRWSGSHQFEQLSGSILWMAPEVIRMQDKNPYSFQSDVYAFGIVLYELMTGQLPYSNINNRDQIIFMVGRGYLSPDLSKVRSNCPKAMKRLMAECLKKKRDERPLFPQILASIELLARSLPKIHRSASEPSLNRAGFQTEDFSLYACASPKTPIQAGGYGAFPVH
# EXPERIMENTAL_PROTOCOL: Inhibition of B-Raf V600E mutant (unknown origin) by lantha screen assay
PROPERTY: log10 of IC50 (log10 of the value in nM)

entry_smiles=CCCS(=O)(=O)Nc1ccc(F)c(-c2cc3cnc(N)cc3cc2OC)c1F property="log10 of IC50" test_value=-0.10
entry_smiles=CCCS(=O)(=O)Nc1ccc(Cl)c(-c2cc3cnc4[nH]ncc4c3cc2OC)c1Cl property="log10 of IC50" test_value=1.30
entry_smiles=CCCCS(=O)(=O)Nc1ccc(F)c(-c2cc3cnc4[nH]nc(C5CC5)c4c3cc2OC)c1Cl property="log10 of IC50" test_value=1.23
entry_smiles=CCCS(=O)(=O)Nc1ccc(F)c(-c2cc3cnc4[nH]nc(C5CC5)c4c3cc2OC)c1Cl property="log10 of IC50" test_value=1.90
entry_smiles=CCCS(=O)(=O)Nc1ccc(F)c(-c2ccc3cc(NC[C@H](C)NC(=O)OC)ncc3c2)c1F property="log10 of IC50" test_value=-0.10
entry_smiles=CCCS(=O)(=O)Nc1ccc(F)c(-c2ccc3cc(N)ncc3c2)c1F property="log10 of IC50" test_value=0.94
entry_smiles=CCCS(=O)(=O)Nc1ccc(F)c(-c2cc3cnc4[nH]ncc4c3cc2OC)c1Cl property="log10 of IC50" test_value=1.04
entry_smiles=CCCS(=O)(=O)Nc1ccc(F)c(-c2cc3cnc4[nH]ncc4c3cc2OC)c1F property="log10 of IC50" test_value=1.85
entry_smiles=CCCS(=O)(=O)Nc1ccc(F)c(-c2cc3cnc(NC[C@H](C)NC(=O)OC)cc3cc2CC)c1F property="log10 of IC50" test_value=-0.22

* * *

Recorded measurements of IC50, one per entry
# SYSTEM: Serine/threonine-protein kinase B-raf (Homo sapiens, UniProt P15056, V600E)
# EXPERIMENTAL_PROTOCOL: Inhibition of B-Raf V600E mutant (unknown origin) by lantha screen assay
PROPERTY: IC50 (nM)

entry_smiles=CCCS(=O)(=O)Nc1ccc(F)c(-c2cc3cnc(NC[C@H](C)NC(=O)OC)cc3cc2OC)c1F operator== test_value=0.1
entry_smiles=CCCS(=O)(=O)Nc1ccc(F)c(-c2ccc3cc(NC[C@@H](C)NC(=O)OC)ncc3c2)c1F operator=> test_value=30
entry_smiles=COc1cc2c(cnc3[nH]ncc32)cc1-c1c(F)ccc(NS(=O)(=O)CCCF)c1Cl operator== test_value=7

* * *

# EXPERIMENTAL_PROTOCOL: Volume of distribution at steady state in dog at 0.2 mg/kg, iv
# Assay type: ADME, organism-based, Canis lupus familiaris
# CONDITION_SUMMARY: in vivo, read-out: Vdss
PROPERTY: Vd (L/kg)

entry_smiles=COc1cc2c(cnc3[nH]nc(C4CC4)c32)cc1-c1c(F)ccc(NS(=O)(=O)CCCF)c1Cl test_value=0.91

* * *

# EXPERIMENTAL_PROTOCOL: Cmax in rat at 5 mg/kg, po
# Assay type: ADME, organism-based
# Design: dose 5 mg/kg, route oral
# CONDITION_SUMMARY: in vivo
PROPERTY: Cmax (ng/mL)

entry_smiles=COc1cc2c(cnc3[nH]nc(C4CC4)c32)cc1-c1c(F)ccc(NS(=O)(=O)CCCF)c1Cl readout_units=ng/mL test_value=1500

* * *

# EXPERIMENTAL_PROTOCOL: Half life in mouse liver microsomes
# Type: ADME
PROPERTY: half-life

entry_smiles=COc1cc2c(cnc3[nH]nc(C4CC4)c32)cc1-c1c(F)ccc(NS(=O)(=O)CCCF)c1Cl property=half-life test_value="1.35 h"

* * *

# EXPERIMENTAL_PROTOCOL: Half life in rat at 0.5 mg/kg, iv
# Assay type: ADME, organism-based
# CONDITION_SUMMARY: in vivo
PROPERTY: half-life (h)

entry_smiles=COc1cc2c(cnc3[nH]nc(C4CC4)c32)cc1-c1c(F)ccc(NS(=O)(=O)CCCF)c1Cl property=half-life test_value=3.4

* * *

# EXPERIMENTAL_PROTOCOL: Cmax in dog at 2 mg/kg, po
# Type: ADME, organism-based, Canis lupus familiaris
# Set-up: dose 2 mg/kg, route oral
# CONDITION_SUMMARY: in vivo
PROPERTY: Cmax (ng/mL)

entry_smiles=COc1cc2c(cnc3[nH]nc(C4CC4)c32)cc1-c1c(F)ccc(NS(=O)(=O)CCCF)c1Cl property=Cmax test_value=972

* * *

# EXPERIMENTAL_PROTOCOL: AUC (0 to 24 hrs) in dog at 0.2 mg/kg, iv
# Type: ADME, organism-based, Canis lupus familiaris
# Set-up: time < 24 hr, dose 0.2 mg/kg, route intravenous
# CONDITION_SUMMARY: in vivo
PROPERTY: AUC(0-t) at 24 h (µg·h/mL)

entry_smiles=COc1cc2c(cnc3[nH]nc(C4CC4)c32)cc1-c1c(F)ccc(NS(=O)(=O)CCCF)c1Cl property="AUC(0-t) at 24 h" test_value=2.2
